# System: corn (Zea mays)
# assayExplanation: Test C greenhouse herbicide test, pre- and postemergence
# Type: in vivo
# experimentalParameters: Preemergence, 125 g ai/ha; scale 0 to 100, 0 is no effect, 100 is complete control
// reported Plant response rating, Corn per item
When you answer, write just the number.

Consider the reported Plant response rating, Corn for these compounds:
[[record]]
smilesstructure = "CCC(=O)Oc1c(Cl)nn(C)c(=O)c1-c1c(C)sc2ccc(Cl)cc12"
assayedsystem = "corn (Zea mays)"
measurementtype = "Plant response rating, Corn"
measurement = 0

[[record]]
smilesstructure = "Cc1ccc2ccc(C)c(-c3c(O)c(C)nn(C)c3=O)c2c1"
assayedsystem = "corn (Zea mays)"
measurementtype = "Plant response rating, Corn"
measurement = 30

[[record]]
smilesstructure = "CC(=O)Oc1c(Br)nn(C)c(=O)c1-c1c(C)ccc2ccccc12"
assayedsystem = "corn (Zea mays)"
measurementtype = "Plant response rating, Corn"
measurement = 15


Asked: Which value of Plant response rating, Corn has been reported for CCOC(=O)Oc1c(C)nn(C)c(=O)c1-c1c(C)ccc2ccccc12 in the records?
Given back: 5

----------
# System: wheat (winter wheat, Triticum aestivum)
# assayExplanation: Test C greenhouse herbicide test, pre- and postemergence
# Type: in vivo
# experimentalParameters: Postemergence, 31 g ai/ha; scale 0 to 100 (0 no effect, 100 complete control)
# Source text: […]
// reported Plant response rating, Wheat per item
When you answer, write just the number.

Asked: Which value of Plant response rating, Wheat has been reported for CC(=O)Oc1c(C)nn(C)c(=O)c1-c1c(C)cc(C)c2ccccc12 in the records?
Given back: 15

Asked: Which value of Plant response rating, Wheat has been reported for COC(=O)Oc1c(Br)nn(C)c(=O)c1-c1c(C)ccc2ccccc12 in the records?
Given back: 75

Asked: Which value of Plant response rating, Wheat has been reported for Cc1nn(C)c(=O)c(-c2cc(F)cc3ccccc23)c1OS(C)(=O)=O in the records?
Given back: 0

Asked: Which value of Plant response rating, Wheat has been reported for Cc1cc(C)c2ccccc2c1-c1c(OS(C)(=O)=O)c(C)nn(C)c1=O in the records?
Given back: 0

Asked: Which value of Plant response rating, Wheat has been reported for COC(=O)Oc1c(C)nn(C)c(=O)c1-c1c([N+](=O)[O-])ccc2ccccc12 in the records?
Given back: 0

Asked: Which value of Plant response rating, Wheat has been reported for CSCC(=O)Oc1c(C)nn(C)c(=O)c1-c1cccc2ccccc12 in the records?
Given back: 0

Asked: Which value of Plant response rating, Wheat has been reported for CCCC(=O)Oc1c(C)nn(C)c(=O)c1-c1c(C)sc2c(C)cc(C)cc12 in the records?
Given back: 0

----------
# Test system: deadnettle (henbit deadnettle, Lamium amplexicaule)
# assayExplanation: Test D controlled growth environment herbicide test, pre- and postemergence
# Type: in vivo
# experimentalParameters: Preemergence, 125 g ai/ha; scale 0 to 100 (0 no effect, 100 complete control)
Field 'label' (enum: Met / Not met). Set to Met when Plant response rating, Deadnettle is strictly under 60; else Not met.

The examples below pair each entry with its known result.
[[record]]
smilesstructure = "CC(=O)Oc1c(C)nn(C)c(=O)c1-c1c(C)sc2c(C)cc(C)cc12"
qualitativelabel = "Met"

[[record]]
smilesstructure = "Cc1cc(C)c2sc(C)c(-c3c(OC(=O)OCCCl)c(C)nn(C)c3=O)c2c1"
qualitativelabel = "Met"


Asked: Strictly below 60: is that where Plant response rating, Deadnettle of CC(=O)Oc1c(C)nn(C)c(=O)c1-c1c(C)cc(C)c2ccccc12 sits?
Given back: Not met

Asked: Strictly below 60: is that where Plant response rating, Deadnettle of CC(=O)Oc1c(C)nn(C)c(=O)c1-c1ccc(F)c2ccccc12 sits?
Given back: Not met

Asked: Strictly below 60: is that where Plant response rating, Deadnettle of CCOC(=O)Oc1c(C)nn(C)c(=O)c1-c1c(C)sc2c(C)cc(C)cc12 sits?
Given back: Met

----------
# Tested on: johnsongrass (Sorghum halepense)
# assayExplanation: Test C greenhouse herbicide test, pre- and postemergence
# Type: in vivo
# experimentalParameters: Preemergence, 31 g ai/ha; scale 0 to 100, 0 is no effect, 100 is complete control
measurementType: Plant response rating, Johnsongrass
When you answer, write just the number.

[[record]]
compound = "Cc1ccc2ccccc2c1-c1c(O)c(C)nn(C)c1=O [Compound 59]"
assayedsystem = "johnsongrass (Sorghum halepense)"
measurement = 5

[[record]]
compound = "COC(=O)Oc1c(C)nn(C)c(=O)c1-c1c(C)sc2c(C)cc(C)cc12 [Compound 81]"
assayedsystem = "johnsongrass (Sorghum halepense)"
measurement = 25

[[record]]
compound = "COc1nn(C)c(=O)c(-c2c(C)ccc3ccccc23)c1OC(=O)OC(C)C [Compound 36]"
assayedsystem = "johnsongrass (Sorghum halepense)"
measurement = 0

[[record]]
compound = "Cc1cc(C)c2sc(C)c(-c3c(OC(=O)OC(C)C)c(C)nn(C)c3=O)c2c1 [Compound 67]"
assayedsystem = "johnsongrass (Sorghum halepense)"
measurement = 10

[[record]]
compound = "Cc1sc2ccc(Cl)cc2c1-c1c(OS(C)(=O)=O)c(Cl)nn(C)c1=O [Compound 114]"
assayedsystem = "johnsongrass (Sorghum halepense)"
measurement = 0


Asked: Which value of Plant response rating, Johnsongrass has been reported for CC(=O)Oc1c(C)nn(C)c(=O)c1-c1c(C)cc(C)c2ccccc12 [Compound 153] in the records?
Given back: 25

Asked: Which value of Plant response rating, Johnsongrass has been reported for Cc1cc(C)c2ccccc2c1-c1c(OS(C)(=O)=O)c(C)nn(C)c1=O [Compound 154] in the records?
Given back: 10

----------
# System: foxtail, green (green foxtail, Setaria viridis)
# assayExplanation: Test D controlled growth environment herbicide test, pre- and postemergence
# Assay type: in vivo
# experimentalParameters: Preemergence, 31 g ai/ha
// reported Plant response rating (scale of 0 to 100), Foxtail, Green per item
When you answer, write just the number.

[[record]]
smilesstructure = "CCC(=O)Oc1c(C)nn(C)c(=O)c1-c1c(C)sc2ccc(Cl)cc12"
measurement = 0

[[record]]
smilesstructure = "CCOC(=O)Oc1c(C)nn(C)c(=O)c1-c1c(C)ccc2ccccc12"
measurement = 15

[[record]]
smilesstructure = "CC(=O)Oc1c(C)nn(C)c(=O)c1-c1c(C)sc2c(C)cc(C)cc12"
measurement = 95


Asked: Which value of Plant response rating (scale of 0 to 100), Foxtail, Green has been reported for Cc1cc(C)c2sc(C)c(-c3c(OC(=O)OC(C)C)c(C)nn(C)c3=O)c2c1 in the records?
Given back: 15

----------
# Test system: pigweed (Amaranthus retroflexus)
# assayExplanation: Test A greenhouse herbicide test, pre- and postemergence
# Format: in vivo
# experimentalParameters: Postemergence, 125 g ai/ha; 0 to 100 scale, 0 no effect, 100 complete control
# Description: […]
// reported Plant response rating, Pigweed per item
When you answer, write just the number.

Consider the reported Plant response rating, Pigweed for these compounds:
[[record]]
compound = "Cc1ccc2ccccc2c1-c1c(OS(C)(=O)=O)c(Br)nn(C)c1=O [Compound 155]"
assayedsystem = "pigweed (Amaranthus retroflexus)"
measurement = 90

[[record]]
compound = "Cc1ccc2ccccc2c1-c1c(O)c([N+](=O)[O-])nn(C)c1=O [Compound 177]"
assayedsystem = "pigweed (Amaranthus retroflexus)"
measurement = 0

[[record]]
compound = "Cc1nn(C)c(=O)c(-c2c([N+](=O)[O-])ccc3ccccc23)c1OC(=O)C(C)(C)C [Compound 163]"
assayedsystem = "pigweed (Amaranthus retroflexus)"
measurement = 0

[[record]]
compound = "Cc1n[nH]c(=O)c(-c2cccc3ccccc23)c1OC(F)F [Compound 175]"
assayedsystem = "pigweed (Amaranthus retroflexus)"
measurement = 0

[[record]]
compound = "Cc1ccc2ccccc2c1-c1c(OC(=O)N2CCOCC2)c(Br)nn(C)c1=O [Compound 176]"
assayedsystem = "pigweed (Amaranthus retroflexus)"
measurement = 30


Asked: Which value of Plant response rating, Pigweed has been reported for Cc1n[nH]c(=O)c(-c2cccc3ccccc23)c1O [Compound 169] in the records?
Given back: 20

----------
// reported Plant response rating, Ryegrass, Italian per item
# Test system: Italian ryegrass (Lolium multiflorum)
# assayExplanation: Test E greenhouse herbicide test, pre- and postemergence
# Format: in vivo
# experimentalParameters: 62 g ai/ha, Postemergence; scale 0 to 100 (0 no effect, 100 complete control)
When you answer, write just the number.

[[record]]
smilesstructure = "COc1nn(C)c(=O)c(-c2c(C)sc3ccc(Cl)cc23)c1O"
measurement = 60


Asked: Which value of Plant response rating, Ryegrass, Italian has been reported for CSCC(=O)Oc1c(C)nn(C)c(=O)c1-c1cccc2ccccc12 in the records?
Given back: 75

Asked: Which value of Plant response rating, Ryegrass, Italian has been reported for CCC(=O)Oc1c(C)nn(C)c(=O)c1-c1c(C)sc2ccc(Cl)cc12 in the records?
Given back: 90

Asked: Which value of Plant response rating, Ryegrass, Italian has been reported for CCOC(=O)Oc1c(C)nn(C)c(=O)c1-c1c(C)sc2c(C)cc(C)cc12 in the records?
Given back: 60

Asked: Which value of Plant response rating, Ryegrass, Italian has been reported for CCC(=O)Oc1c(C)nn(C)c(=O)c1-c1c(C)sc2ccc(C)cc12 in the records?
Given back: 70

The reported numbers originate from patent US10597388B2.
